# Target entity: EGFR on the surface of human tumour cells (A431, H292) (human, UniProt P00533 25-1210)
# Assay overview: cell-based or functional assay
Measured parameter: IC50, EGF-induced EGFR phosphorylation, A431 cells, In Cell Western (nM)
The reply should contain only the number, in nM.

Using the record for I1-GS10-E85 pegylated, His-tagged (designed binder, 40 kDa branched PEG on the Cys of the C-terminal Cys tail) MGVSDVPRDLEVVAATPTSLLISWSARLKVARYYRITYGETGGNSPVQEFTVPKNVYTATISGLKPGVDYTITVYAVTRFRDYQPISINYRTEIDKGSGSGSGSGSGSGSGSGSGSVSDVPRDLEVVAATPTSLLISWTQGSTHYQYYRITYGETGGNSPVQEFTVPGMVYTATISGLKPGVDYTITVYAVTDYFDRSTHEYKYRTTPISINYRTEIDKPCQHHHHHH , report its IC50, EGF-induced EGFR phosphorylation, A431 cells, In Cell Western.
22
